Attribution: ChEMBL document CHEMBL1201862

// reported GI50 per item
Test system: MOLT-4
Experiment: NCI tumour cell line growth inhibition, 48 h
Active and inactive are the calls of the source. No stated cut-off is given here; in the data, active = GI50 up to about 1.1 µM and inactive = higher.

Consider the following illustrative entries.
c1ccc(COc2nc3cc(C45CC6CC(CC(C6)C4)C5)ccc3[nH]2)cc1 : 3.35 µM (inactive)
Clc1cccc(C2SCc3nc4ccccc4n32)c1 (stereo not given) : 23.1 µM (inactive)
O=C(/C=C/c1ccc(O)c(O)c1)OCCc1cccc2ccccc12 : 1.61 µM (inactive)

Now take the following compound into account.
Req: API: value(readout= GI50, system= MOLT-4, query= Cc1cccc(NC(=O)CCl)c1 )
Resp: > 10 µM (inactive)

* * *

Listed next: entries and their corresponding GI50.
Tested on: A498
Assay: NCI tumour cell line growth inhibition, 48 h
Calls of active or inactive are those of the source. Rule as the data show it: active = GI50 up to about 1.1 µM and inactive = higher.

Below: 2 compounds and their reported GI50.
CNc1ccc2c(c1)Cc1ccccc1-2 : 20 µM (inactive)
CCN1CN(c2ccccc2)C2(CCN(CC(CC3OCCO3)c3ccc(F)cc3)CC2)C1=O (stereo not given) : 3.63 µM (inactive)

Req: Sample O=C(/C=C/c1ccc(O)c(O)c1)OCCc1cccc2ccccc12 — what was its GI50?
Resp: 11.5 µM (inactive)

Req: Could you tell me which GI50 is on file for CC(C)Oc1cccc(N2C(NCCc3c[nH]c4ccccc34)=Nc3ccncc3S2(=O)=O)c1 ?
Resp: 9.31 µM (inactive)

Req: Please look up its GI50: COc1ccc(/N=C/N(C)C)c(C)c1
Resp: 18.1 µM (inactive)

Req: Would you mind telling me what GI50 value was observed for CC1OC(OCC2OC(Oc3ccc(C4CC(=O)c5c(O)cc(O)cc5O4)cc3O)C(O)C(O)C2O)C(O)C(O)C1O (stereo not given) ?
Resp: > 100 µM (inactive)

Req: Requested field: GI50. Item: CCC(c1ccccc1)c1cc(C(C)(C)C)cc(C(C)(C)C)c1O (stereo not given)
Resp: 19.7 µM (inactive)

* * *

Tested on: LOX IMVI
Assay: NCI tumour cell line growth inhibition, 48 h
Activity calls are given as the source filed them. Cut-off read from the data, not from the text of the source: active = GI50 up to about 1.1 µM and inactive = higher.
Pick one and only one: active, inactive

Examples with answers:
CC1(C)COP(=S)(c2ccccn2)O[C@@H]1c1ccccc1 (some centres undefined) : inactive
Cc1ccc(S(=O)(=O)c2ccsc2NC(=O)c2ccccc2)cc1 : inactive
O=C1O/C(=C(\Br)c2cccc3ccccc23)c2ccccc21 : inactive
Cn1c2ccc([N+](=O)[O-])cc2c(=O)c2c(O)cc(O)cc21 : inactive
CCOc1ccccc1N1C(=O)C(=O)C(c2nc3ccccc3s2)C(=O)C1=O : inactive

Req: Tell me the assay call for Cc1nc(N(C(C)C)C(C)C)c(C(C)C)o1 please.
Resp: inactive

Req: For COc1ccc2c(c1)nc1n2C(c2c(F)cccc2F)SC1 (centres undefined) , which call appears in the assay record?
Resp: inactive

Req: Which result was noted for this compound in the test: Cc1n[nH]c(=O)n1N1C(=O)c2ccccc2C1=O
Resp: inactive

* * *

Listing: GI50 of selected compounds
System: SK-MEL-5
Test: NCI tumour cell line growth inhibition, 48 h
Calls of active or inactive are those of the source. Rule as the data show it: active = GI50 up to about 1.1 µM and inactive = higher.

O=[N+]([O-])c1ccc(CSc2nn(Cc3ccc([N+](=O)[O-])cc3)cc3ncnc2-3)cc1 : 32 µM (inactive)
CCC(c1ccccc1)c1cc(C(C)(C)C)cc(C(C)(C)C)c1O (stereo unspecified) : 18.1 µM (inactive)
CCCOc1ccc(/C(Cl)=C(\C=O)c2ccc(OC)c(OC)c2)cc1OCCC : 10 µM (inactive)
COC1CC(C)(NC(C)=O)C2OC(c3ccccc3)OCC2O1 (stereo unspecified) : > 100 µM (inactive)

Req: I would be grateful if you could share the reported GI50 for CCn1cnc2c(NC(C)=O)ncnc21 .
Resp: > 100 µM (inactive)

Req: Using the record for CCSC1=C(C#N)C2(CCCCC2)C2=C(O)CC(C)(C)CC2=N1 , report its GI50.
Resp: 40.9 µM (inactive)

* * *

Parameter GI50: see the listing below.
Test system: SNB-19
Assay: NCI tumour cell line growth inhibition, 48 h
Activity calls are given as the source filed them. Rule as the data show it: active = GI50 up to about 1.1 µM and inactive = higher.

Example compounds with recorded GI50:
CN(C)c1ccc(/C=C/c2cc[n+](C)c3ccccc23)cc1 : 2.34 µM (inactive)
CCC(=O)C(C)C(=O)C(=O)C(=O)OC (configuration not stated) : > 100 µM (inactive)
CCN1CN(c2ccccc2)C2(CCN(CC(CC3OCCO3)c3ccc(F)cc3)CC2)C1=O (configuration not stated) : 20.6 µM (inactive)
CNS(=O)(=O)NN(C)S(=O)(=O)c1ccc(F)cc1 : > 100 µM (inactive)
N/N=C1\C(=O)N(c2ccc(Cl)cc2Cl)C(=O)C(=O)C1c1nc2ccccc2o1 (configuration not stated) : > 100 µM (inactive)

Req: Which GI50 value belongs to CN(CCCNC(=O)c1nn(-c2ccccc2)c2c1Cc1ccccc1-2)CCCNC(=O)c1nn(-c2ccccc2)c2c1Cc1ccccc1-2 ?
Resp: 1.61 µM (inactive)

Req: Look at this compound and give its reported GI50. CC1=CC(C)C(C)N(CCNC(=O)Nc2ccccc2)c2ccccc21 (configuration not stated)
Resp: 20.3 µM (inactive)

Req: Looking for the measured GI50 of CC(C)(C)C1CC[C@H]2c3c([nH]c4ccc(Br)cc34)[C@H]3C(=O)N(c4ccccc4)C(=O)[C@H]3[C@H]2C1 (some centres not stated) , can you help?
Resp: 23.6 µM (inactive)

Req: Tell me the measured GI50 of CC[C@]12C=CCN3CC[C@@]4(c5cc(Br)c(OC)cc5N(C)[C@H]4[C@@](O)(C(=O)NC(Cc4c[nH]c5ccccc45)C(=O)OC)[C@@H]1O)[C@@H]32 (some centres not stated) , please.
Resp: 33.2 µM (inactive)

Req: What value of measured GI50 is listed for NC1=NN(c2ccccc2)C(=O)C1C(=O)C(=O)Nc1nccs1 (configuration not stated) ?
Resp: > 100 µM (inactive)

Req: So what does the record say about GI50 for O=C(CC(O)(C(F)(F)F)C(F)(F)F)c1cccs1 ?
Resp: > 10 µM (inactive)

Req: Record request: GI50 value, item Oc1ccc2ccccc2c1/N=N/c1cccc2ccccc12
Resp: 47.6 µM (inactive)

Req: Which GI50 is reported for this compound? Cc1nc2ccc(Cl)cc2c2c1CCO2
Resp: 60.4 µM (inactive)

* * *

System: RXF 393
Assay: NCI tumour cell line growth inhibition, 48 h
Calls of active or inactive are those of the source. Cut-off read from the data, not from the text of the source: active = GI50 up to about 1.1 µM and inactive = higher.
TEST READOUT: GI50

See these solved cases before continuing.
CCOc1ccc(C(CN2CCOCC2)C(C)=O)cc1OC (stereo not given) : 21 µM (inactive)
CC(C)CNP(=O)(NCC(C)C)Oc1ccc(CC(NC(=O)OCc2ccccc2)C(=O)OCc2ccccc2)cc1 (stereo not given) : 18.5 µM (inactive)
CC(=O)N(C(=O)CC(=O)N/N=C\c1ccc(Br)c(N(CCC#N)CCC#N)c1)c1ccc(Cl)cc1 : > 100 µM (inactive)
O=C(COc1ccc(Cl)c(Cl)c1)N(Cc1ccccc1)Cc1ccc[n+](Cc2ccc(Cl)cc2S(=O)(=O)F)c1 : > 100 µM (inactive)

Req: Need GI50, item Cc1nc(N(C(C)C)C(C)C)c(C(C)C)o1
Resp: > 100 µM (inactive)

* * *

Tested on: MDA-MB-435
Assay: NCI tumour cell line growth inhibition, 48 h
The source made the active and inactive calls. Rule as the data show it: active = GI50 up to about 1.1 µM and inactive = higher.
Below, each entry is listed with its recorded GI50.

Answered cases to consult:
CSc1c(C#N)c(N)nc2c(/N=N\c3ccc(Br)cc3)c(N)nn12 : 9.66 µM (inactive)
O=C(NCCCN(CCCCN(CCCNC(=O)C(F)(F)F)CCCc1ccccc1)CCCc1ccccc1)C(F)(F)F : 1.76 µM (inactive)
Cc1nc(N(C(C)C)C(C)C)c(C(C)C)o1 : > 100 µM (inactive)
Nn1c(CCCCCCCCc2nnc(COc3c(O)ccc4ccccc34)n2N)nnc1COc1c(O)ccc2ccccc12 : > 100 µM (inactive)
O=C1/C(=C/c2ccco2)N=C(c2ccccc2)N1c1ccc(S(=O)(=O)Nc2nccs2)cc1 : > 100 µM (inactive)

Continue with the compound presented below.
Req: For Cc1n[nH]/c(=N\S(=O)(=O)c2ccc(/N=N/c3c(O)c(C(=O)O)cc4ccccc34)cc2)s1 , what is its reported GI50?
Resp: > 100 µM (inactive)

* * *

Consider the following compounds and their measured GI50 readings.
System: IGROV-1
Test: NCI tumour cell line growth inhibition, 48 h
The source made the active and inactive calls. Rule as the data show it: active = GI50 up to about 1.1 µM and inactive = higher.

Take a look at these entries with their results.
Brc1ccc(/N=N/N2CCCC2)cc1 : 34.8 µM (inactive)
Cc1ccc(S(=O)(=O)c2c(O)c3ccc(O)c(C)c3oc2=O)cc1 : > 100 µM (inactive)
OC1(c2ccccc2)CCN(Cc2c[nH]c3ccccc23)CC1 : > 100 µM (inactive)

Req: Which measured GI50 value corresponds to Cn1c(C(C#N)c2nc(Cl)ncc2Br)nc2ccccc21 (stereo unspecified) ?
Resp: > 100 µM (inactive)

Req: # lookup: GI50 of CC(=O)OC[C@@H]1[C@H]2CC[C@]3(C)[C@@H](OC(C)=O)CC[C@H]3[C@@H]2CC[C@H]1C1(C)SCCS1
Resp: > 25 µM (inactive)

Req: Which GI50 is listed for COc1cc2c(cc1OC)-c1cc3ccccc3c[n+]1CC2 ?
Resp: > 100 µM (inactive)

Req: What measured GI50 goes with O=CN1CCN(CC(O)CN2CCCCC2)CC1 (stereo unspecified) ?
Resp: > 100 µM (inactive)
